target_entity: T1, antibody raised against ETAG
T1 construct: Coated at 500 ng/well; also called E-tag antibody
assay_notes: phage ELISA
endpoint: ETAG (OD)

1) TPVAISIPAGVCSTSVCGRDAAAGAPVPYPDPLEPRP [DGI-2-20F-PP-C11] = 3.2 OD
2) TFTRDVAGPAVSFVRLHSWNAAAGAPVPYPDPLEPRP [DGI-2-20F-PP-A9] = 40.8 OD
3) RVSYEMLGRRRRSMHGSSMRAAAGAPVPYPDPLEPRP [DGI-2-20F-PP-A4] = 6.6 OD
4) MGADTCMGGKMPFDQMFGAVAAAGAPVPYPDPLEPRP [DGI-2-20F-PP-E10] = 44.6 OD
5) SLLCVVCRPVSGGRALGGVPAAAGAPVPYPDPLEPRP [DGI-2-20F-PP-B42] = 21.5 OD
6) DRHRAFVAEGLDGFRHSTGVAAAGAPVPYPDPLEPRP [DGI-2-20F-PP-D4] = 44 OD
7) RRGVCEIFTGWCVGQTNERPAAAGAPVPYPDPLEPRP [DGI-2-20R-4-H626] = 13.5 OD
8) RERWGTAWNLWTEGVVDVRPAAAGAPVPYPDPLEPRP [DGI-2-20F-3-B5] = 16.4 OD
9) EVFVSVWVFRFRVMPVTPGGTAAAGAPVPYPDPLEPRP [DGI-2-20F-PP-E6] = 4.1 OD
10) LGRTFVWGTCLHLSVSRFGHAAAGAPVPYPDPLEPRP [DGI-2-20F-PP-C3] = 39.9 OD
11) RDTTSQWSWISRGWEFPGWRAAAGAPVPYPDPLEPRP [DGI-2-20R-3-C2] = 11.9 OD
12) RDHRYVGWGRATFRHDQSVWAAAGAPVPYPDPLEPRP [DGI-2-20F-PP-H1] = 1.4 OD
13) WVVALRRIRLGLRRGVECLLAAAGAPVPYPDPLEPRP [DGI-2-20F-PP-D5] = 33.6 OD
